EXPERIMENTAL_TARGET: Factor Xa (Homo sapiens)
Sequence (P00742 235-488 limits assumed): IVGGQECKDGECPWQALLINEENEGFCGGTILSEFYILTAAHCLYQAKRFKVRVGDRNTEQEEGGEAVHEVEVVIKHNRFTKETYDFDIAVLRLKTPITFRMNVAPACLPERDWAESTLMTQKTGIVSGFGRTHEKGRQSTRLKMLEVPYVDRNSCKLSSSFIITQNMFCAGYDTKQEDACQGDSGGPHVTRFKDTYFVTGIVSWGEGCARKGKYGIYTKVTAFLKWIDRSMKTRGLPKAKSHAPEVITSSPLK
Sequence (P00742 41-179 partner limits assumed): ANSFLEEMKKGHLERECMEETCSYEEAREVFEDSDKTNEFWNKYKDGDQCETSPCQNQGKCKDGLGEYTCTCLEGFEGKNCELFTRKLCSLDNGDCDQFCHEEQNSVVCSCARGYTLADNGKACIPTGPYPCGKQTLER
// values below are reported Ki
MEASURED_ENDPOINT: Ki (nM)

| INPUT_SMILES | MEASURED_ENDPOINT | QUANTITATIVE_RESULT |
| --- | --- | --- |
| N=C(N)NCCC[C@H](NC(=O)[C@H](Cc1ccccc1)NC(=O)CCCC(N)=O)C(=O)c1nc2ccccc2s1 | Ki | 1200 |
| N=C(N)NCCCCC(=O)N[C@@H](CCC(N)=O)C(=O)N[C@@H](Cc1ccccc1)C(=O)N[C@@H](CCCNC(=N)N)C(=O)c1nc2ccccc2s1 | Ki | 48.2 |
| N=C(N)NCCCCC(=O)N[C@@H](CCC(N)=O)C(=O)N[C@@H](CCc1ccccc1)C(=O)N[C@@H](CCCNC(=N)N)C(=O)c1nc2ccccc2s1 | Ki | 56.9 |
